Where do the numbers come from? From ChEMBL document CHEMBL1938331.

- Study system: Prostaglandin D2 receptor 2 (Homo sapiens)
- Sequence (Q9Y5Y4 whole entry): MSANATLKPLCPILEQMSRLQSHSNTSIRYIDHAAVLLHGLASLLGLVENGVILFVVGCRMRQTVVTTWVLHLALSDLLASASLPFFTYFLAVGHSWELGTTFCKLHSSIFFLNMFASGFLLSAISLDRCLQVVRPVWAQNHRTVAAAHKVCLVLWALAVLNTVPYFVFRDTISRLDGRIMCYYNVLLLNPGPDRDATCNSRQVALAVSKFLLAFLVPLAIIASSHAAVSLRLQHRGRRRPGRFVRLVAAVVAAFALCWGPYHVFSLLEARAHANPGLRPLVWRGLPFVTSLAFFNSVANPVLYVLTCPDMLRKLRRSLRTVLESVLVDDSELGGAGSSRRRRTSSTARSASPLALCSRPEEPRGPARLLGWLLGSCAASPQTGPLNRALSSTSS
- Test: Displacement of [3H]PGD2 from human CRTH2 receptor expressed in HEK293 cells after 2 hrs by scintillation counting
pIC50: −log10 of the molar value.
Quantity: pIC50

{"Molecule smiles": "O=C(O)COc1cccc(CCCN(CCC(c2ccccc2)c2ccccc2)C(=O)c2ccccc2)c1", "Recorded number": 8.01}

a. O=C(O)COc1cccc(CCCn2cc(C(c3ccc(Cl)cc3)c3ccc(Cl)cc3)ccc2=O)c1
b. COc1ccc(C(c2ccc(OC)cc2)c2ccc(=O)n(CCCc3cccc(OCC(=O)O)c3)c2)cc1
Lower value for measured pIC50? Options: a , b Answer by quoting the chosen item's label.
a
(a: 8.04, b: 8.24)
